Reported values of koff for individual entries
# study.system: T1, human PCSK9 (Proprotein Convertase Subtilisin/Kexin type 9) (human, UniProt Q8NBP7 31-692, biotin label in the ELISA formats (site not stated))
# T1 construct: 85 kDa was used as the analyte's mass in SPR; also called PCSK9 (WT); wild type PCSK9
# experimental.protocol: SPR, Biacore T200, antibody captured, PCSK9 as analyte
// return numeric value only (unit: s⁻¹, not printed)

binder: 15.14.2-uAb-IgG4L (antibody, V domains shown, human IgG4 constant region, lambda light chain) VH: EVQMLESGGGLVQPGGSLRLSCAVSGFTFSRFAMSWVRQAPGKGLDWVSSISDNAGRTYFADSVKGRFTISRDNSKNTLYLQMNSLRADDTAVYYCAKLSNWGPYGMDVWGQGTTVTVSS VL: QSALTQPPSASGSPGQSVTISCTGTSSDVGYYNYVSWYQQHPGEAPKLMIYEVNKRPSGVPDRFSGSKSGSTASLTVSGLQAVDEADYYCSSYAGSKNFVVFGGGTKLTVL
reported.measurement: 8.09e-05
--
binder: 40409 (hIgG4) (antibody, V domains shown, human IgG4 constant region) VH: QLNLQQSGPGLVNPSQTLSLTCAISGGSVSSNSAAWNWIRQSPSRGLEWLGRIYSRSKWYHDYAVSVKGRITINPDTSKNQFFLQLNSVTPEDTAVYYCARDWETIIWGDDGPNYYNYGLDVWGQGTTVTVSS VL: DIQMTQSPSSLSASVGDRVTITCRASQGIRNDLGWYQQKPGKAPKRLIYGASSLQSGVPSRFSGSGSGTEFTLTISSLQPEDFATYYCLQHNNYLWTFGQGTKVEIK
reported.measurement: 9.05e-05

Value of measured koff for the entry 17.72.3-uAb2-IgG4K (antibody, V domains shown, human IgG4 constant region, kappa light chain) VH: QVQLQESGPGLVKPSGTLSLTCAVSGGSIRSYNWWSWVRQPPGEGLEWIGEIHHSGTTNYNPSLKSRVTISVDKSKNQFSLKLSSVTAADTAVYYCARDYSGSYFDYWGQGTLVTVSS VL: EVVLTQSPATLSLSPGERATLSCRTSQSLSSYVAWSQQKPGQAPRLLIYDASKRATGVPARFSGSGSGTDFTLTISNLEPEDFAVYYCHQRGNWMSSFGQGTKLEIK : 4.68e-05

Where these numbers come from: patent US20190233542A1
